# maps each entry to its RANK gene expression
Tested on: genes regulating the NF-κB pathway in human umbilical vein endothelial cells (HUVEC)
experiment notes: NF-κB pathway-specific gene expression microarray in HUVEC treated with PR peptides
Type: cell-based
condition details: HUVEC, PR peptides 1 μM, 8 hours, relative to untreated controls
Protocol: Cell Culture. […] Total RNA Extraction and Gene Profiling by Microarray. […] The quality and quantity of total RNA was determined using RNA 6000 Nano chips (Agilent Technology, Santa Clara, Calif.). Gene profiling was performed using pathway-specific gene expression array for NF-κB signaling transduction (HS-016.2, SuperArray Bioscience Corp.). […] After background subtraction, the level of gene expression was determined as signal intensity units relative to total array intensity signal. […]
Ends that are not written are not given here.

[
  {
    "residue string": "RKRPRPPYLPR [Peptide K2]",
    "unit spec": "fold change",
    "RANK gene expression": 1.1
  },
  {
    "residue string": "ARRPRPPYLPR [Peptide A1]",
    "unit spec": "fold change",
    "RANK gene expression": 1.2
  },
  {
    "residue string": "RRRPRPPELPR [Peptide E8]",
    "unit spec": "fold change",
    "RANK gene expression": 1.5
  },
  {
    "residue string": "KRRPRPPELPR [Peptide K1E8]",
    "unit spec": "fold change",
    "RANK gene expression": 0.7
  },
  {
    "residue string": "ARRPRPPELPR [Peptide A1E8]",
    "unit spec": "fold change",
    "RANK gene expression": 1.3
  },
  {
    "residue string": "KKKPRPPYLPR [KKK]",
    "unit spec": "fold change",
    "RANK gene expression": 1.2
  },
  {
    "residue string": "RARPRPPYLPR [Peptide A2]",
    "unit spec": "fold change",
    "RANK gene expression": 1.4
  }
]

* * *

# maps each entry to its NF-κB2 gene expression
Tested on: genes regulating the NF-κB pathway in human umbilical vein endothelial cells (HUVEC)
experiment notes: NF-κB pathway-specific gene expression microarray in HUVEC treated with PR peptides
Assay type: cell-based
condition details: HUVEC, PR peptides 1 μM, 8 hours, relative to untreated controls
Experimental: Cell Culture. […] Total RNA Extraction and Gene Profiling by Microarray. […] The quality and quantity of total RNA was determined using RNA 6000 Nano chips (Agilent Technology, Santa Clara, Calif.). Gene profiling was performed using pathway-specific gene expression array for NF-κB signaling transduction (HS-016.2, SuperArray Bioscience Corp.). […] After background subtraction, the level of gene expression was determined as signal intensity units relative to total array intensity signal. […]
Ends that are not written are not given here.
measured quantity: NF-κB2 gene expression (fold change)

[
  {
    "residue string": "RRRPRPPELPR [Peptide E8]",
    "target entity": "genes regulating the NF-κB pathway in human umbilical vein endothelial cells (HUVEC)",
    "measured quantity": "NF-κB2 gene expression",
    "test result": "−1.4"
  },
  {
    "residue string": "RRKPRPPYLPR [Peptide K3]",
    "target entity": "genes regulating the NF-κB pathway in human umbilical vein endothelial cells (HUVEC)",
    "measured quantity": "NF-κB2 gene expression",
    "test result": "−1.2"
  },
  {
    "residue string": "RARPRPPYLPR [Peptide A2]",
    "target entity": "genes regulating the NF-κB pathway in human umbilical vein endothelial cells (HUVEC)",
    "measured quantity": "NF-κB2 gene expression",
    "test result": "−0.8"
  },
  {
    "residue string": "RRRPRPPELPRW [Peptide E8W12]",
    "target entity": "genes regulating the NF-κB pathway in human umbilical vein endothelial cells (HUVEC)",
    "measured quantity": "NF-κB2 gene expression",
    "test result": "−1.3"
  },
  {
    "residue string": "KKKPRPPYLPR [KKK]",
    "target entity": "genes regulating the NF-κB pathway in human umbilical vein endothelial cells (HUVEC)",
    "measured quantity": "NF-κB2 gene expression",
    "test result": "−1.4"
  },
  {
    "residue string": "RRAPRPPYLPR [Peptide A3]",
    "target entity": "genes regulating the NF-κB pathway in human umbilical vein endothelial cells (HUVEC)",
    "measured quantity": "NF-κB2 gene expression",
    "test result": "−1.4"
  },
  {
    "residue string": "ARRPRPPYLPR [Peptide A1]",
    "target entity": "genes regulating the NF-κB pathway in human umbilical vein endothelial cells (HUVEC)",
    "measured quantity": "NF-κB2 gene expression",
    "test result": "−1.1"
  },
  {
    "residue string": "RKRPRPPYLPR [Peptide K2]",
    "target entity": "genes regulating the NF-κB pathway in human umbilical vein endothelial cells (HUVEC)",
    "measured quantity": "NF-κB2 gene expression",
    "test result": "−1.5"
  }
]
